assaySystem: aryl hydrocarbon receptor (AhR) (Homo sapiens, UniProt P35869)
Construct: pCMVXL4AhR transfected in HepG2 cells
Sequence (P35869 11-848): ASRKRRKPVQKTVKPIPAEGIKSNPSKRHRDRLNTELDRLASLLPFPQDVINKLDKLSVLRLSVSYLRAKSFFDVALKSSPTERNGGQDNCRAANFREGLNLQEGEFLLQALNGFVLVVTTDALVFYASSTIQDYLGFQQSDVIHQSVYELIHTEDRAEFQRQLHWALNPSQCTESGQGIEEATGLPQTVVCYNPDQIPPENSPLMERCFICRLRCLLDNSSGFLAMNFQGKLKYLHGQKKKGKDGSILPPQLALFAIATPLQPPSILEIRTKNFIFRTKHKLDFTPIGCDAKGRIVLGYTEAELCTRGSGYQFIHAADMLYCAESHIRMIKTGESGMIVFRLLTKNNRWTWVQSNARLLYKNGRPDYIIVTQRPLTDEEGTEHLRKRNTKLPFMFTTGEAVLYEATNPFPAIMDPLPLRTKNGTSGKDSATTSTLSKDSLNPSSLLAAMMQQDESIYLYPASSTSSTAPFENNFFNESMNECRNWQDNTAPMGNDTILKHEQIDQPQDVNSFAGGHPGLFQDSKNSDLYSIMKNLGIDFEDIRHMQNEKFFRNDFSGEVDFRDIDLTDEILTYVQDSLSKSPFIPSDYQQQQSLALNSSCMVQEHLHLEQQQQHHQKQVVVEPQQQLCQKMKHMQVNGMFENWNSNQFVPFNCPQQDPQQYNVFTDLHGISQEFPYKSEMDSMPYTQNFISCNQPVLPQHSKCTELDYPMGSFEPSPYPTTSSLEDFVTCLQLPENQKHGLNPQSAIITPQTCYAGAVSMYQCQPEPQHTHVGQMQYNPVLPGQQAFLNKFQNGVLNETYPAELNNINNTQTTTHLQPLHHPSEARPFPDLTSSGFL
experiment: AhR luciferase reporter transactivation in AhR-transfected HepG2 cells; effects lost in AhR-/- macrophages
Type: cell-based
parameter: pEC50
Please treat pEC50 as minus the base-10 logarithm of the molar concentration.

**Query** What is its pEC50 for aryl hydrocarbon receptor (AhR) (Homo sapiens, UniProt P35869)? Entry: COc1ccc(-c2[o+]c3cc(OC)cc(OC)c3cc2O)cc1 [Mt-P, methylated pelargonidin]
**Result** 5.71
